Measured values drawn from ChEMBL document CHEMBL2163223 for this set.

- METHOD: Lipophilicity, log D of the compound at pH 7.4 using shake flask method
- Format: physicochemical
- RUN_PARAMETERS: buffer

MOLECULE: CCO/N=C1\C=C(C#Cc2ccccn2)CCC1F (stereo unspecified)
logD: 3.5

---

Test system Metabotropic glutamate receptor 5 (Rattus norvegicus), Ki listed for each of the compounds.
PROPERTY_MEASURED: Ki

COMPOUND: CCO/N=C1/C=C(C#Cc2ccccn2)CCC1F (configuration not stated)
PROPERTY_MEASURED: Ki
RESULT: 5.7 nM
--
COMPOUND: CCO/N=C1/C=C(C#Cc2cccc(C)n2)CCC1F (configuration not stated)
PROPERTY_MEASURED: Ki
RESULT: 13 nM
